assay-comment: total protein half-life in vivo (active degradation + dilution); higher = more stable protein
cond: wild type E. coli NCM3722; growth: P-lim chemostat; doubling time 6 h
Kindly supply the reported total protein half-life in vivo values for the records listed here.
Numbers only, in h.

MKRKVLLIPLIIFLAIAAALLWQLARNAEGDDPTNLESALIGKPVPKFRLESLDNPGQFYQADVLTQGKPVLLNVWATWCPTCRAEHQYLNQLSAQGIRVVGMNYKDDRQKAISWLKELGNPYALSLFDGDGMLGLDLGVYGAPETFLIDGNGIIRYRHAGDLNPRVWEEEIKPLWEKYSKEAAQ [P0AA86] :: 5.3

# next sequence below
query: Look up total protein half-life in vivo for this sequence: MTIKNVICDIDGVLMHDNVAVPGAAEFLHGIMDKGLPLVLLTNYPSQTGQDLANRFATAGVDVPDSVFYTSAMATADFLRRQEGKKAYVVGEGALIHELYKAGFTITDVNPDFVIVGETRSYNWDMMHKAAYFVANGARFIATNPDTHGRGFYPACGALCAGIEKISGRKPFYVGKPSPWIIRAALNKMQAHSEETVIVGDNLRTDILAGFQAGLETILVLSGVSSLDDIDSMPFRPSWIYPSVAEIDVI [P0AF24]
result: 6

---

assay-comment: total protein half-life in vivo (active degradation + dilution); higher = more stable protein
cond: wild type E. coli NCM3722; growth: C-lim chemostat; doubling time 12 h
Kindly supply the reported total protein half-life in vivo values for the records listed here.
Give bare numbers, in h.

Example entries and their recorded answers appear below.
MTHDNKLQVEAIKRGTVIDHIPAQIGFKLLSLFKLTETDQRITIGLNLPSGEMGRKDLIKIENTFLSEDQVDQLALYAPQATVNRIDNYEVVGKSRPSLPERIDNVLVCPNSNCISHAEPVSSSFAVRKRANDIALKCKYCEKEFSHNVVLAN [P0A7F3] :: 9.11
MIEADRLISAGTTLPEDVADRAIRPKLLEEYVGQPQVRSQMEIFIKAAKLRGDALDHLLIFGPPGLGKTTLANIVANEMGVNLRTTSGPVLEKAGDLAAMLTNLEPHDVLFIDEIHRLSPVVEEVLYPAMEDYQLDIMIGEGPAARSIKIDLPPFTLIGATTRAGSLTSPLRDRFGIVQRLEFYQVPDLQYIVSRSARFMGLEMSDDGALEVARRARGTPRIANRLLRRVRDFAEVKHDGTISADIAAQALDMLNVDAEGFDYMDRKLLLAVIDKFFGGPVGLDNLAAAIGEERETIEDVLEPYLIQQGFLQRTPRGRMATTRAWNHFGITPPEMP [P0A812] :: 5.83

# next sequence below
query: Look up total protein half-life in vivo for this sequence: `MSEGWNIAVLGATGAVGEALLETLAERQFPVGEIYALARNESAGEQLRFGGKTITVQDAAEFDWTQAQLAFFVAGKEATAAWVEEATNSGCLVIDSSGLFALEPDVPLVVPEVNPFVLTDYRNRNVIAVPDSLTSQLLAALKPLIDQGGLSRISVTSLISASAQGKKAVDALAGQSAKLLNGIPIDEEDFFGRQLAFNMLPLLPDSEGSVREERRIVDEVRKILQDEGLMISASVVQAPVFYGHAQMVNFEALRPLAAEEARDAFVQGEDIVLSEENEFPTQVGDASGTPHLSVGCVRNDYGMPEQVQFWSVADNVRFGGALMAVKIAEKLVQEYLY`
result: 9.85
